Numbers sourced from patent US20240150440A1.

Target: recombinant SARS-CoV-2 RBD with C-terminal AviTag (SARS-CoV-2, UniProt P0DTC2 319-541)
Assay: BLI, biotinylated RBD on streptavidin biosensors [Cont. 6]
pKd: −log10 of the molar value.
Measure Name: pKd

[[record]]
binder = "PP900 MBP-5HVZ-R5a-F2-H6 (VHH, Form: Dimer) VHH: QVQLVESGGGLVQPGGSLRLSCAASGSISSIEAMSWFRQAPGKQREGVATMASGGDTSYADSVKGRFTISRDNAKNTVYLQMNSLKPEDTAVYYCAAQTYRPDTWGRYTFWGQGTQVTVSS"
measure_name = "pKd"
measured_value = 8.04

[[record]]
binder = "PP883 MBP-R1e-D4-H6 (VHH, Form: Monomer) VHH: QVQLVESGGGLVQPGGSLRLSCAASGSIREINAMHWVRQAPGKGRELVASIDSGSLDYYADSVKGRFTISRDNAKNTVYLQMNSLKPEDTAVYYCAASRSGDYRYWGQGTQVTVSS"
measure_name = "pKd"
measured_value = 7.33

[[record]]
binder = "PP885 MBP-R5b-C5-H6 (VHH, Form: Monomer) VHH: QVQLVESGGGLVQPGGSLRLSCAASGSPFKTQTVHWFRQAPGKGREWVASITSGSGTQYMDSVKGRFTISRDNAKNTVYLQMNSLKPEDTAVYYCAAANDGYGVDWGQGTQVTVSS"
measure_name = "pKd"
measured_value = 7.05

[[record]]
binder = "PP880 MBP-R5a-B5-H6 (VHH, Form: Monomer) VHH: QVQLVESGGGLVQPGGSLRLSCAASGDDFIENAISWYRQAPGKGREWVAAVTLGGHSNYADSVKGRFTISRDNAKNTVYLQMNSLKPEDTAVYYCNYPVGIPAVAIDGRRSYGYWGQGTQVTVSS"
measure_name = "pKd"
measured_value = 7.22

[[record]]
binder = "PP881 MBP-R5a-F2-H6 (VHH, Form: Monomer) VHH: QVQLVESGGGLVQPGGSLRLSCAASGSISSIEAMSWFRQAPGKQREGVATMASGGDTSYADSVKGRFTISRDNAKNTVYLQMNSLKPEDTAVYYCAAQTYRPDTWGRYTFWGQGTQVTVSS"
measure_name = "pKd"
measured_value = 6.15

[[record]]
binder = "PP906 MBP-5HVZ-S1b-E7-H6 (VHH, Form: Dimer) VHH: QVQLVESGGGLVQPGGSLRLSCAASGGEFSDNGLHWFRQAPGKQREFVATASSDGSTQYRDSVKGRFTISRDNAKNTVYLQMNSLKPEDTAVYYCTALLMSSAGEYDVWGQGTQVTVSS"
measure_name = "pKd"
measured_value = 7.81

